Data origin: ChEMBL document CHEMBL4402540

test: Inhibition of AgrC-2 in Staphylococcus aureus RN9372 incubated for 1 hr in presence of AIP agonist by beta-lactamase reporter gene assay
pIC50: −log10 of the molar value. Where a SMILES comes first, the peptide text is derived from it. Bridges are numbered along the chain shown (N, C = ends). [ ]: non-standard residue; d: D form. NMeF = CN[C@@H](Cc1ccccc1)C(=O)O; Mpa = O=C(O)CCS
observable: pIC50

P: CC(=O)N[C@H]1CSC(=O)[C@H](Cc2ccccc2)NC(=O)[C@H](CC(C)C)NC(=O)[C@H](CO)NC(=O)CNC1=O (Ac-CGSLF; thioester 1-C)
Q: CC(C)C[C@@H]1NC(=O)[C@H](CO)NC(=O)[C@H](CO)NC(=O)CCSC(=O)[C@H](Cc2ccccc2)N(C)C1=O ([Mpa]SSL[NMeF]; thioester 1-C)
Given the two records P and Q , choose the one whose pIC50 value is lower. Answer format: the label of the selected item.
Q
